Values were extracted from PubChem BioAssay (NCI).

System: TK-10 renal
Assay: NCI-60 one-dose screen, 48 h
Conditions: 10 µM unless noted
Experimental: Growth inhibition of the TK-10 human tumor cell line is measured as a screen for anti-cancer activity. Cells are grown in 96 well plates and exposed to the test compound for 48 hours. Compounds are tested at a single concentration, which is 10^-5 M for most compounds. The reported endpoint is percent growth (GI% or GIPRCNT), where numbers from 0 - 100% represent growth inhibition, and numbers from -100% - 0 represent cell death. For example, a value of 40 represents 60% growth inhibition. […]
Compounds without any hit were thinned out: in the full panel of roughly 83,000, 20% have a hit. Calls of active or inactive are those of the source. How the source made its calls: active means growth percent below 10; inactive means the rest.
Select the correct class. Options are active, inactive and nothing else.

molecule	qualitative-label
CN1CCN(c2ccc(-c3cc4c(Nc5ccc(F)c(Cl)c5)ncnn4c3)cc2)CC1	inactive
C=C1C(=O)O[C@H]2[C@H]1CC/C(COC(=O)CCSSCCC(=O)OC/C1=C/CC[C@@]3(C)O[C@H]3[C@H]3OC(=O)C(=C)[C@@H]3CC1)=C\CC[C@@]1(C)O[C@@H]21	active
Cc1c(C(=O)N[C@@H](Cc2ccccc2)C(=O)C(=O)NCc2ccc(F)cc2)[nH]c2ccccc2c1=O	inactive
CCCCCCCCCCCCCCCCCCOc1ccccc1CCCOP(=O)(O)OCC[N+](C)(C)C	active
O=c1ccn(Cc2cn(-c3c4ccccc4nc4ccccc34)nn2)c(=O)[nH]1	inactive

Dear all, I need the recorded test outcome for O=C(CCc1nnc(-c2c(Cl)cccc2Cl)o1)c1nc2ccccc2[nH]1 , thank you.
inactive

Which outcome was assigned to c1ccc2cc(C[n+]3ccn(CCCCCCCCCCCCn4cc[n+](Cc5ccc6ccccc6c5)c4)c3)ccc2c1 in this test?
active

Outcome logged for NS(=O)(=O)c1ccc(N=Nc2ccc(-c3nn4cc(-c5ccccc5)nc4s3)cc2)cc1 in this assay:
inactive

So what was the verdict on C=C1CC[C@H](C(C)C)[C@@H]2[C@H]1[C@H]1CC(=C)[C@@H](O)CC[C@@](C)(O)[C@@H]2O1 in this test?
inactive

# outcome recorded in this test, key = CCCCCCCCCCCCCCCCCCOc1ccc(CC(=O)OCC[N+](C)(C)C)cc1
inactive

---

System: SF-539 CNS
Assay: NCI-60 one-dose screen, 48 h (100 = growth as untreated, 0 = no growth, -100 = all killed)
Conditions: 10 µM unless noted
The panel holds about 83,000 compounds, 20% with a hit somewhere; the sample as a whole holds those more often.
Field: label. Allowed values: y (growth < 90%) or n (growth >= 90%).

// below: answered molecules
molecule	qualitative-label
O=C1/C(=C/c2ccc(F)cc2)Sc2c(Br)cccc21	y
S=c1nc(-c2ccccc2)oc(=NC2CCCCC2)n1C1CCCCC1	y
Cc1nn(-c2ccccc2)c2c1N=c1s/c(=C\c3ccc(C(F)(F)F)cc3)c(=O)n1CN2	y
COc1cccc(Cc2cc(-c3ccccc3)nn(CC(=O)c3ccccc3)c2=O)c1	y
COc1cc(/C=C/C(=O)/C=C/c2cc(OC)c3c(c2OC)OCO3)c(OC)c2c1OCO2	y
C=C1C(=O)O[C@H]2[C@H]1CC/C(COC(=O)CSCC(=O)OC/C1=C/CC[C@@]3(C)O[C@H]3[C@H]3OC(=O)C(=C)[C@@H]3CC1)=C\CC[C@@]1(C)O[C@@H]21	y

Find out if reported growth for COc1cc(CNS(=O)(=O)c2ccc(C)cc2)ccc1OCc1cn(-c2ccccc2)nn1 is less than 90%
n

Given the entry OC(c1ccccc1)C(NC(Cc1ccccc1)c1ccccc1)c1ccccc1 (centres undefined) , would its reported growth be below 90%?
n

---

Reported values of growth for individual entries
Test system: OVCAR-5 ovarian
Experiment: NCI-60 one-dose screen, 48 h (100 = growth as untreated, 0 = no growth, -100 = all killed)
Conditions: 10 µM unless noted
This is part of a sample that, as a whole, favours compounds with a hit. Of some 83,000 tested, about 20% had one in any assay.
Answer with a number only, understood to be in %.

Here is how some molecules turned out for growth.
molecule	growth (%)
COc1cc2oc(-c3ccc(O)cc3)cc(=O)c2c(O)c1-c1c(OC)cc(O)c2c(=O)cc(-c3ccc(O)cc3)oc12	101
Cc1c(C(=O)NCCCc2ccccc2)sc2ncc(-c3ccc(Br)cc3)n12	107
CC(=O)CC(c1ccccc1)c1c(C)[nH]c2ccccc12 (stereo not given)	94.2
NCCCNc1nc2ccccc2c2c(=O)c3cc(C(F)(F)F)ccc3sc12	69.8
C=C1CC[C@H](C(C)C)[C@@H]2[C@H]1[C@H]1CC(=C)[C@@H](O)CC[C@@](C)(O)[C@@H]2O1	79.5

So what's the measured growth for this one? CC(=O)CC(c1cccs1)c1c(-c2ccccc2)[nH]c2ccccc12 (stereo not given)
99.8

Quick check: growth of COc1ccc(NC(=O)n2nc(/C=C\c3ccc(O)c(OC)c3)cc2/C=C\c2ccc(O)c(OC)c2)cc1 ?
62.3

Bench note: what growth did Cc1nn(-c2ccccc2)c(-n2ccnc2)c1/C=N/Nc1nc(-c2ccc(F)cc2)cs1 show?
105

Returns the measured growth for the input molecule. Input: O=c1c2cc(F)ccc2sc2c(N3CCNCC3)nc3ccccc3c12
73.1

Requested field: growth. Item: COc1ccc(OC)c(/C=C/C(=O)N/N=C/c2ccc(Cl)cc2)c1
28.4

---

Test system: 786-0 renal
Experiment: NCI-60 one-dose screen, 48 h
Conditions: 10 µM unless noted
The panel holds about 83,000 compounds, 20% with a hit somewhere; the sample as a whole holds those more often. Activity calls are given as the source filed them. The calls were made as follows: active = growth percent below 10; inactive = the rest.
Tick one outcome: label 1 for active, label 0 for inactive

Please review the following examples before continuing.
molecule	qualitative-label
CNc1nc2c(s1)C(c1cccc(F)c1)CC(=O)N2 (centres undefined)	label 0
Cc1ccc2sc3c(NCCCN)nc4ccccc4c3c(=O)c2c1	label 0
C=C1C(=O)O[C@H]2[C@H]1CC/C(COC(=O)CSCC(=O)OC/C1=C/CC[C@@]3(C)O[C@H]3[C@H]3OC(=O)C(=C)[C@@H]3CC1)=C\CC[C@@]1(C)O[C@@H]21	label 1
O=C1NC(=O)C(Cn2cnc3ccccc32)N1 (centres undefined)	label 0
C[C@H]1[C@H]2[C@H]3CC[C@@H]4[C@@]5(C)CC[C@H](O)C(C)(C)[C@@H]5CC[C@@]4(C)[C@]3(C)CC[C@]23CO[C@]1(C)[C@@H](C(=O)/C=C\c1cccnc1)C3	label 0
CNCCCNc1nc2ccccc2c2c(=O)c3cc(F)ccc3sc12	label 0
C[C@H](C(=O)Nc1ccc(S(N)(=O)=O)cc1)S(=O)(=O)c1ccccc1	label 0
O=C(Cc1ccc2c(c1)OCCO2)Nc1nc2ccc(F)cc2s1	label 0

What call does the record list for C/C(=C\C(=O)c1ccc(Cl)cc1)c1ccc(Cl)cc1 ?
label 0

Could you kindly confirm the outcome this assay logged for O=C1c2cccc3cccc(c23)C(=O)N1Nc1nc(NC2CCCCC2)nc(N2CCOCC2)n1 ?
label 0

GET /call?item= Nc1ccc(Sc2ccc([N+](=O)[O-])c3nonc23)cc1 returns the recorded outcome of this test.
label 0

Any idea what this test logged for COc1cc(/C=C/c2ccccc2)cc(OC)c1 ?
label 0

Please indicate how the test categorized O=S(=O)(Nc1ccc(-c2nc(-c3cccc(OCCN4CCOCC4)c3)c(-c3ccnc(Br)c3)[nH]2)cc1)c1ccccc1 .
label 0

---

The reader will find reported growth values listed item by item below.
Test system: SR leukemia
Assay: NCI-60 one-dose screen, 48 h (100 = growth as untreated, 0 = no growth, -100 = all killed)
Conditions: 10 µM unless noted
Procedure: Growth inhibition of the SR human tumor cell line is measured as a screen for anti-cancer activity. Cells are grown in 96 well plates and exposed to the test compound for 48 hours. Compounds are tested at a single concentration, which is 10^-5 M for most compounds. The reported endpoint is percent growth (GI% or GIPRCNT), where numbers from 0 - 100% represent growth inhibition, and numbers from -100% - 0 represent cell death. For example, a value of 40 represents 60% growth inhibition. […]
About 83,000 compounds went through this panel and 20% of them were active in at least one assay; those are over-represented in the sample as a whole.
API: value field is a number in %; no unit string.

COc1cc2cc(Oc3ccc(NC(=O)Nc4ccc(Cl)c(Cl)c4)cc3)c(C)nc2cc1OCCN1CCOCC1 5.6
CCCCCCn1c(-c2ccc(C(=O)O/N=C(\N)c3ccc4ccccc4c3)cc2)nc(-c2ccccc2)c1-c1ccccc1 -37.7
O=c1cc(SCc2ccccc2)nc[nH]1 127
O=C(N/N=C/[C@H](O)[C@@H](O)[C@@H](O)[C@H](O)CO)c1ccc(NC(=O)c2cccnc2)cc1 103

Find growth (SR leukemia) for the entry Cc1ccc2c(-c3cc(-c4ccccc4)nc(N)c3C#N)cc(=O)oc2c1
100

---

Tested on: NCI-H226 lung
Experiment: NCI-60 one-dose screen, 48 h (100 = growth as untreated, 0 = no growth, -100 = all killed)
Conditions: 10 µM unless noted
Compounds without any hit were thinned out: in the full panel of roughly 83,000, 20% have a hit. Calls of active or inactive are those of the source. The calls were made as follows: active = growth percent below 10; inactive = the rest.
Recorded growth for the following compounds

Some entries whose results are on file:
compound	metric-name	reported-result
O=c1c2cccc(F)c2sc2c(NCCCNCCO)nc3ccccc3c12	growth	58% (inactive)
O=C1/C(=C/c2ccc(F)cc2)Sc2c(Br)cccc21	growth	79.4% (inactive)
CCC(C)(c1cc(C(C)(C)C)c(O)c(C(C)(C)C)c1)c1cc(C(C)(C)C)c(O)c(C(C)(C)C)c1	growth	100% (inactive)
COc1ccc(-n2c(N)c(-c3nc4ccccc4[nH]3)cc(C#N)c2=O)cc1	growth	35.3% (inactive)
COc1ccc2nc(NCCCNCCO)c3sc4ccc(F)cc4c(=O)c3c2c1	growth	87.9% (inactive)
COc1ccc(-c2cc(-c3ccc(Cl)cc3)c(C#N)c(=O)n2CCCCCC(=O)Nc2ccccc2N)cc1	growth	72.9% (inactive)
Cc1nn(-c2ccccc2)c(-n2ccnc2)c1/C=N/Nc1nc(-c2ccc(Cl)c(Cl)c2)cs1	growth	51.9% (inactive)
COc1ccc(/C=N/Nc2cc(=O)[nH]c3ccc(C)cc23)cc1	growth	81.5% (inactive)

growth for COc1ccc(S(=O)(=O)n2cc(C3OC(c4cc(OC)c(OC)c(OC)c4)=NN3C(C)=O)c3ccccc32)cc1OC (centres undefined) ?
93.2% (inactive)
